Origin of values: PubChem BioAssay (NCI)

system: K-562 leukemia; experiment: NCI-60 one-dose screen, 48 h (100 = growth as untreated, 0 = no growth, -100 = all killed); settings: 10 µM unless noted
Compounds without any hit were thinned out: in the full panel of roughly 83,000, 20% have a hit.
# growth values compiled below
Supply the numeric figure in %, leaving out any unit text.

A selection of reference data follows.
>  <Molecule>
CN1CCN(CCCNC(=O)c2c3c(n4ccccc24)C(=O)c2ncccc2C3=O)CC1

>  <growth [%]>
-1.31

$$$$
>  <Molecule>
O=C(O)/C=C\C(=O)Nc1ccc2c(c1)Cc1cc(F)ccc1-2

>  <growth [%]>
104

$$$$
>  <Molecule>
OC1CSSC1Cn1cnc2c(Nc3ccc(F)c(Cl)c3)ncnc21 (stereo not given)

>  <growth [%]>
32.5

$$$$
>  <Molecule>
CN1CCN(Cn2nc(-c3cc(Cl)cc(Cl)c3Cl)oc2=S)CC1

>  <growth [%]>
68.8

$$$$
>  <Molecule>
Cc1ccc(-c2nn(CC(=O)N3CCOCC3)c(N)c2C#N)cc1

>  <growth [%]>
99.8

$$$$
>  <Molecule>
CC(C)C(=O)Nc1ncc(C(=O)NCCN(Cc2ccccc2)C(=O)c2ccc(S(=O)(=O)Nc3ccccc3)cc2)s1

>  <growth [%]>
98.4

$$$$

Give recorded growth. COc1ccc(C2=NN(C=O)C(c3ccc(Oc4nc5c(c(=O)n(C)c(=O)n5C)n4C)c(OC)c3)C2)cc1 (stereo not given) 89.9
